# System: OR2G2 L167P R236G
# experimental-parameters: stereoisomer not certain
measurement-label: odorant receptor agonist call

- compound: "CC1=C(O)C(=O)OC1C (centres undefined)"
  measurement-label: "odorant receptor agonist call"
  result: "inactive"
- compound: "CCC1OC(=O)C(O)=C1C (centres undefined)"
  measurement-label: "odorant receptor agonist call"
  result: "inactive"
- compound: "Cc1cnc(C)c(C)n1"
  measurement-label: "odorant receptor agonist call"
  result: "inactive"
- compound: "CCCCCCC=CCCC=O"
  measurement-label: "odorant receptor agonist call"
  result: "inactive"

----------
# Test system: A0A140T8K4
# experimental-parameters: stereoisomer not certain
Classes used: yes = active, no = inactive

- compound: "CCCCC(=O)O"
  discrete-label: "no"
- compound: "CCCCCCO"
  discrete-label: "no"
- compound: "CC1=NC(C)C(C)S1 (centres undefined)"
  discrete-label: "yes"
- compound: "C=CCOC(=O)CCCCCC"
  discrete-label: "no"
- compound: "O=c1ccc2ccccc2o1"
  discrete-label: "no"
- compound: "CC(=O)OCC=C(C)C"
  discrete-label: "no"
- compound: "CCCC(C)=O"
  discrete-label: "no"
- compound: "COc1cc(C(=O)O)ccc1O"
  discrete-label: "no"
- compound: "CCCCCCCC(=O)[O-].[H+]"
  discrete-label: "no"
- compound: "CCC(=O)O"
  discrete-label: "no"
- compound: "C=C(C)C1CCC(C)C(=O)C1 (centres undefined)"
  discrete-label: "yes"
- compound: "O=C(c1ccccc1)c1ccccc1"
  discrete-label: "no"
- compound: "c1ccccc1"
  discrete-label: "no"
- compound: "CC(=O)c1nccnc1C"
  discrete-label: "no"
- compound: "CCCCOC(=O)C(C)OC(=O)CCC (centres undefined)"
  discrete-label: "no"
- compound: "CC1CCc2nccnc21 (centres undefined)"
  discrete-label: "no"
- compound: "CCCCCCCC(C)=O"
  discrete-label: "no"
- compound: "CCCCCC1=C(C)CCC1=O"
  discrete-label: "no"
- compound: "CC(C)=CCCC(C)CCO (centres undefined)"
  discrete-label: "no"
- compound: "CCCCCCCCC(=O)O"
  discrete-label: "no"
- compound: "Cc1cncc(C)n1"
  discrete-label: "no"
- compound: "CCCCC(C)=O"
  discrete-label: "no"
- compound: "CCc1nccnc1OC"
  discrete-label: "no"
- compound: "CCCCCCCCCS"
  discrete-label: "no"
- compound: "CC(=O)Oc1ccccc1"
  discrete-label: "no"
- compound: "CCCCCO"
  discrete-label: "no"
- compound: "COc1cnccn1"
  discrete-label: "no"
- compound: "CCC(C)c1nccnc1OC (centres undefined)"
  discrete-label: "no"
- compound: "COc1nccnc1C(C)C"
  discrete-label: "no"
- compound: "CCCCC(=O)CC"
  discrete-label: "no"
- compound: "COc1nccnc1CC(C)C"
  discrete-label: "no"
- compound: "CCc1ncc(C)nc1CC"
  discrete-label: "no"
- compound: "CC(=O)OCc1ccccc1"
  discrete-label: "no"
- compound: "CCC(=O)C(=O)CC"
  discrete-label: "no"
- compound: "Cc1cnc(C)cn1"
  discrete-label: "no"
- compound: "CC12CCC(CC1=O)C2(C)C (centres undefined)"
  discrete-label: "no"
- compound: "CC(C)=CCCC(C)=CCO"
  discrete-label: "no"
- compound: "CCc1nccnc1C"
  discrete-label: "no"
- compound: "Cc1nccnc1C"
  discrete-label: "no"
